assay: MELAS cybrid and Rieske KO viability enhancers – cell-based, MELAS cybrids, Rieske KO mouse fibroblasts, CellTiter-Glo, primary screen (AID 1508586); details: MELAS cybrid survival, low glucose, CellTiter-Glo 48 h;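 note: z relative to plate mean and SD of compound and empty wells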
The source made the active and inactive calls.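 Rule for the calls: active = mean z-score across replicates of 1.96 or higher in either the MELAS or the Rieske mutant cell line; inactive = the rest.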
# output must be one of active, inactive

Q: What outcome does the record of this test show for O=C(Nc1ncc(SCCN2CCCC2)s1)[C@]1(c2ccc(S(=O)(=O)C3CC3)cc2)CC1C1CCCCC1 (stereo partly specified) ?
Result: inactive

Q: For CCC1C(=O)N(C)c2cnc(Nc3ccc(C(=O)NC4CCN(C)CC4)cc3OC)nc2N1C1CCCC1 (stereo unspecified) , what call appears in the results of this test?
Result: inactive

Q: Any idea what this test logged for CC1(C)S[C@@H]2C(NC(=O)C(N)c3ccccc3)C(=O)N2C1C(=O)O (stereo partly specified) ?
Result: inactive

Q: Hello, I am checking results. What call was entered for CNC(=C[N+](=O)[O-])NCCSCc1csc(CN(C)C)n1 ?
Result: inactive

Q: Hi, do you know how CC(C)N1CC(OCc2ccc(F)cc2)CN(C(=O)c2ccc(C#CC(C)(C)O)o2)CC1=O (stereo unspecified) came out in this test?
Result: inactive

Q: Given Cn1c2c(cc(Cc3ccccc3F)c1=O)CN(C(=O)c1ccc(C#CC(C)(C)O)o1)CC2 , state the outcome it received in this test.
Result: inactive

---
Q: Please let me know the test result on file for CON=C(C(=O)N[C@@H]1C(=O)N2C(C(=O)O)=C(CSC(=O)c3ccco3)CS[C@H]12)c1csc(N)n1 .
Result: inactive

Q: Could you check what this test reported for CC(C)NC[C@@H](O)c1ccc(O)c(O)c1 ?
Result: inactive

* * *

test: viability loss with induced miR-34 in A549 – imaging, A549 dox-inducible miR-34, nuclei and caspase counts, primary screen (AID 1347080); conditions: A549 miR-34 inducible, Hoechst nuclei count, 48 h; measured here: total cells without miR-34 induction
Where a SMILES comes first, the peptide text is derived from it. The star is where a group is joined. Cbz = O=C(OCc1ccccc1)*
Kindly return TRUE if reported cell count is no lower than 9000; return FALSE if it is lower.

# example entries with known answers
Q: Decide: is the reported value of cell count for COC(=O)C1=COC(O)[C@@H]2C(CO)=CC[C@H]12 (some centres undefined) equal to or greater than 9000?
Result: TRUE

Q: # check: cell count of CS(=O)(=O)c1ccc([C@@H](O)[C@@H](COC(=O)CN)NC(=O)C(Cl)Cl)cc1 is greater than or equal to 9000
Result: TRUE

Q: Assess whether reported cell count for C#C[C@@]1(O)CC[C@H]2[C@@H]3CCC4=CC(=O)CC[C@@H]4[C@@H]3CC[C@@]21CC sits at 9000 or higher.
Result: FALSE

Q: Is the recorded value of cell count equal to or greater than 9000 for this molecule? COc1ccc(CNc2nc(N3CCCC3CO)ncc2C(=O)NCc2ncccn2)cc1Cl (centres undefined)
Result: FALSE

Q: Evaluate COC1O[C@H]2O[C@@]3(C)CC[C@H]4[C@@H](C)CC[C@@H]([C@H]1C)[C@@]24OO3 (some centres undefined) : cell count at minimum 9000?
Result: FALSE

***
Q: hey, is cell count for this one >= 9000? CC1=C(C(=O)O)N2C(=O)C(NC(=O)C(N)c3ccccc3)[C@@H]2SC1 (some centres undefined)
Result: FALSE

Q: Assess whether reported cell count for CCCCC/C=C\C/C=C\CC1OC1C/C=C\CCCC(=O)O (centres undefined) sits at 9000 or higher.
Result: FALSE

Q: Given CC(C)CC(C=O)NC(=O)C(CC(C)C)NC(=O)C(CC(C)C)NC(=O)OCc1ccccc1 (stereo not drawn) (Cbz-Leu-Leu-Leu-aldehyde; configuration not given here) , state whether its cell count is at least 9000.
Result: FALSE

* * *

assay: viability loss with induced miR-34 in A549 – imaging, A549 dox-inducible miR-34, nuclei and caspase counts, primary screen (AID 1347080); conditions: A549 miR-34 inducible, Hoechst nuclei count, 48 h; measured here: relative caspase fold change +Dox/-Dox
Please respond with satisfied when measured fold change is strictly beneath 0.9, and with not satisfied in all other cases.

Look over these answered cases.
Q: Please state whether fold change is below 0.9 for CCCCC/C=C\C\C=C/C=C/C=C/[C@@H](SC[C@H](N)C(=O)O)[C@@H](O)CCCC(=O)O
Result: not satisfied

Q: I wonder whether Nc1ccn(C2O[C@H](CO)[C@@H](O)C2(F)F)c(=O)n1 (stereo not given in full) has fold change below 0.9. Can you tell?
Result: not satisfied

Q: Identify whether the compound O=C(O)COc1cccc2ccccc12 records fold change below 0.9.
Result: satisfied

Q: API: query returns whether the compound falls strictly under 0.9 in fold change. Query: CC[C@]1(O)C[C@H]2CN(CCc3c([nH]c4ccccc34)[C@@](C(=O)OC)(c3cc4c(cc3OC)N(C)[C@H]3[C@@](O)(C(N)=O)[C@H](O)[C@]5(CC)C=CCN6CC[C@]43[C@@H]65)C2)C1
Result: not satisfied

Q: Regarding Cc1cc2nc3[nH]c(=O)[nH]c(=O)c3nc2cc1C , kindly confirm whether its fold change is beneath 0.9.
Result: satisfied

New cases:
Q: Is fold change of C#C[C@@]1(O)CC[C@H]2[C@@H]3CCc4cc(O)ccc4[C@@H]3CC[C@@]21C strictly below 0.9?
Result: not satisfied

Q: # check: fold change < 0.9 for Nc1ccc(N2C(=O)c3ccccc3C2=O)c(Cl)c1
Result: not satisfied

Q: State whether 0.9 exceeds fold change recorded for Cc1cc(C)c(S(=O)(=O)n2cc(C)cc2C)c(C)c1 .
Result: satisfied

Q: Does this compound meet the criterion fold change < 0.9? C=C1C(=CC=C2CCC[C@]3(C)C(C(C)CCCC(C)(C)O)CC[C@@H]23)CC(O)CC1O (stereo not given in full)
Result: not satisfied

* * *

experiment: viability loss with induced miR-34 in A549 – imaging, A549 dox-inducible miR-34, nuclei and caspase counts, primary screen (AID 1347080); conditions: A549 miR-34 inducible, Hoechst nuclei count, 48 h; measured here: total cells with miR-34 induction; stronger effect = lower value
readout: cell count
Please respond with just the number, no unit label.

Solved entries:
// CC(C)(C)OC(=O)NC1CCCCCC=CC2C[C@@]2(C(=O)NS(=O)(=O)C2CC2)NC(=O)C2CC(OC(=O)N3Cc4cccc(F)c4C3)CN2C1=O (stereo partly drawn) : cell count value = 6840

The compound COc1cc(OC)c(C=CS(=O)(=O)Cc2ccc(OC)c(NCC(=O)O)c2)c(OC)c1 showed cell count equal to 1610

Consider CCCCNc1ncc(C(=O)NCc2ccc(-n3ccnc3)cc2)c(NC2CCC(O)CC2)n1 (stereo not drawn) . Its measured cell count is 2450

Given item Cc1c(Br)c(=O)oc2c(Br)c(O)ccc12 , the value recorded as its cell count is 8490

***
Record summary for CN(C)C/C=C(\c1ccc(Br)cc1)c1cccnc1 : reported cell count = 8480

Lookup result for CN1Cc2sccc2C(c2ccc(O)c(O)c2)C1 (stereo not drawn) ; measured cell count: 10300

Entry CCCC(=O)NCCc1c2n(c3ccc(OC)cc13)CCCc1ccccc1-2 , cell count reported as 8600

For reference, reported cell count for CC(C)OC(=O)CCCC=CCC1C(O)CC(O)C1CCC(O)CCc1ccccc1 (stereo not drawn) stands at 9620

* * *

test: viability loss with induced miR-34 in A549 – imaging, A549 dox-inducible miR-34, nuclei and caspase counts, primary screen (AID 1347080); conditions: A549 miR-34 inducible, Hoechst nuclei count, 48 h; measured here: total cells without miR-34 induction
Label key: true (1) means cell count under 9000; false (0) means cell count of 9000 or more.

Reference set (3 entries):
Q: Hi there! Is cell count for CC(NC(=O)OCc1ccccc1)C(=O)O (stereo not drawn) below 9000, do you know?
Result: false (0)

Q: Hello, is cell count of the following compound strictly smaller than 9000? CC1=C(C(=O)O)N2C(=O)C(NC(=O)C(N)c3ccccc3)C2SC1 (stereo not drawn)
Result: false (0)

Q: Is 9000 strictly greater than the compound's reported cell count? compound: Cc1cc(C)c(S(=O)(=O)n2cc(C)cc2C)c(C)c1
Result: true (1)

Okay, now this compound:
Q: Does the reported cell count of C=CC[N+]1(C2C[C@H]3[C@@H]4CC[C@H]5CC(O)C(N6CCOCC6)C[C@]5(C)[C@@H]4CC[C@]3(C)C2OC(C)=O)CCCC1 (stereo partly drawn) stay below 9000?
Result: true (1)

* * *

experiment: UWB1.289_BRCA1 ovarian cancer growth, cell-based, BGB or cisplatin combinations (AID 1671459); details: UWB1.289 BRCA1 ovarian carcinoma, drug combinations, at 0.5 µM
Activity calls are given as the source filed them. No stated cut-off is given here; in the data, active means inhibition above about 80%; inactive means the rest.
Bench note: report the call from active, inactive

Q: Given CON=C1CN(c2nc3c(cc2F)c(=O)c(C(=O)O)cn3C2CC2)CC1CN (stereo not given) , state the outcome it received in this test.
Result: inactive

Q: Look up the recorded call for CN(C)C(=S)NN=C(c1ccccn1)c1ccccn1 in this test.
Result: active

Q: Check the results log: what was the call for Nc1nc(NC2CC2)cc(-c2cccc(Cl)c2Cl)n1 ?
Result: inactive

Q: // return assay outcome for Cn1cc(-c2cnn3c(N)c(Br)c([C@H]4CCCNC4)nc23)cn1
Result: inactive

Next:
Q: // outcome(item) with item = COc1nc(N)nc2c1ncn2[C@@H]1O[C@H](CO)[C@@H](O)[C@H]1O
Result: inactive
